System: Caco-2 cell monolayers
Assay: Permeability across Caco-2 cell monolayers
Format: in vitro ADME
MEASURED PARAMETER: apical to basal transport rate

Req: Please look up its apical to basal transport rate: CCCCC[C@H](O)CC[C@@H]1[C@H]2Cc3cccc(OCC(=O)O)c3C[C@H]2C[C@H]1O
Resp: 1.39e-06 cm/s

====

Assay: in vivo
Conditions: male, Sprague-Dawley, rat, po, 1 mg/kg, Average (n = 3) plasma concentrations
MEASURED PARAMETER: concentration at 480 min (ng/mL)
The response must be a number in ng/mL with no trailing unit.

Req: Please look up its concentration at 480 min: CCCCC[C@H](O)CC[C@@H]1[C@H]2Cc3cccc(OCC(=O)O)c3C[C@H]2C[C@H]1O
Resp: 0.96

====

Assay: in vivo
Details: male, Sprague-Dawley, rat, po, 1 mg/kg, Average Bioavailability (%) ± SD
MEASURED PARAMETER: bioavailability (%)
The response must be a number in % with no trailing unit.

Req: Please look up its bioavailability: CCCCC[C@H](O)CC[C@@H]1[C@H]2Cc3cccc(OCC(=O)O)c3C[C@H]2C[C@H]1O [Treprostinil, treprostinil]
Resp: 9.2

====

Test: in vivo
Details: male, Sprague-Dawley, rat, iv, 1 mg/kg, Average (n = 3) plasma concentrations
MEASURED PARAMETER: concentration at 15 min (ng/mL)
The response must be a number in ng/mL with no trailing unit.

Req: Please look up its concentration at 15 min: CCCCC[C@H](O)CC[C@@H]1[C@H]2Cc3cccc(OCC(=O)O)c3C[C@H]2C[C@H]1O
Resp: 131

====

Experiment: in vivo
Settings: male, Sprague-Dawley, rat, 1 mg/kg, Average plasma concentrations
MEASURED PARAMETER: concentration at 120 min (ng/mL)
The response must be a number in ng/mL with no trailing unit.

Req: Please look up its concentration at 120 min: CCCCC[C@H](O)CC[C@@H]1[C@H]2Cc3cccc(OCC(=O)O)c3C[C@H]2C[C@H]1O [Treprostinil, treprostinil]
Resp: 3.87

====

Assay: in vivo
Conditions: male, Sprague-Dawley, rat, 1 mg/kg, Average plasma concentrations
MEASURED PARAMETER: concentration at 240 min (ng/mL)
The response must be a number in ng/mL with no trailing unit.

Req: Please look up its concentration at 240 min: CCCCC[C@H](O)CC[C@@H]1[C@H]2Cc3cccc(OCC(=O)O)c3C[C@H]2C[C@H]1O [Treprostinil, treprostinil]
Resp: 2.51

====

Experiment: in vivo
Conditions: male, Sprague-Dawley, rat, 1 mg/kg, Average plasma concentrations
MEASURED PARAMETER: concentration at 60 min (ng/mL)
The response must be a number in ng/mL with no trailing unit.

Req: Please look up its concentration at 60 min: CCCCC[C@H](O)CC[C@@H]1[C@H]2Cc3cccc(OCC(=O)O)c3C[C@H]2C[C@H]1O [Treprostinil, treprostinil]
Resp: 11.1

====

Assay: in vivo
Conditions: male, Sprague-Dawley, rat, po, 1 mg/kg, Average (n = 3) plasma concentrations
MEASURED PARAMETER: concentration at 30 min (ng/mL)
The response must be a number in ng/mL with no trailing unit.

Req: Please look up its concentration at 30 min: CCCCC[C@H](O)CC[C@@H]1[C@H]2Cc3cccc(OCC(=O)O)c3C[C@H]2C[C@H]1O
Resp: 3.67

====

Assay: in vivo
Details: male, Sprague-Dawley, rat, 1 mg/kg, Average plasma concentrations
MEASURED PARAMETER: concentration at 15 min (ng/mL)
The response must be a number in ng/mL with no trailing unit.

Req: Please look up its concentration at 15 min: CCCCC[C@H](O)CC[C@@H]1[C@H]2Cc3cccc(OCC(=O)O)c3C[C@H]2C[C@H]1O [Treprostinil, treprostinil]
Resp: 48

====

Test: in vivo
Conditions: male, Sprague-Dawley, rat, Tmax
MEASURED PARAMETER: Tmax

Req: Please look up its Tmax: CCCCC[C@H](O)CC[C@@H]1[C@H]2Cc3cccc(OCC(=O)O)c3C[C@H]2C[C@H]1O [Treprostinil, treprostinil]
Resp: ≤ 5 min

====

Assay: in vivo
Details: male, Sprague-Dawley, rat, po, 1 mg/kg, Cmax
MEASURED PARAMETER: Cmax (ng/mL)
The response must be a number in ng/mL with no trailing unit.

Req: Please look up its Cmax: CCCCC[C@H](O)CC[C@@H]1[C@H]2Cc3cccc(OCC(=O)O)c3C[C@H]2C[C@H]1O
Resp: 5

====

Assay: in vivo
Details: male, Sprague-Dawley, rat, iv, 1 mg/kg
MEASURED PARAMETER: clearance (mL/min/kg)
The response must be a number in mL/min/kg with no trailing unit.

Req: Please look up its clearance: CCCCC[C@H](O)CC[C@@H]1[C@H]2Cc3cccc(OCC(=O)O)c3C[C@H]2C[C@H]1O
Resp: 88.5

====

Assay: in vivo
Settings: male, Sprague-Dawley, rat, po, 1 mg/kg, Average (n = 3) plasma concentrations
MEASURED PARAMETER: concentration at 15 min (ng/mL)
The response must be a number in ng/mL with no trailing unit.

Req: Please look up its concentration at 15 min: CCCCC[C@H](O)CC[C@@H]1[C@H]2Cc3cccc(OCC(=O)O)c3C[C@H]2C[C@H]1O
Resp: 2.9

====

Test: in vivo
Conditions: male, Sprague-Dawley, rat, 1 mg/kg, Average plasma concentrations
MEASURED PARAMETER: concentration at 480 min

Req: Please look up its concentration at 480 min: CCCCC[C@H](O)CC[C@@H]1[C@H]2Cc3cccc(OCC(=O)O)c3C[C@H]2C[C@H]1O
Resp: 5.14 ng/mL

====

Catalogue of molecules with associated Tmax (of Treprostinil)
Assay: Treprostinil plasma concentrations in rats after a single intraduodenal dose of prodrugs (Example 3)
Settings: intraduodenal, rat
Protocol: This example illustrates a pharmacokinetic study of treprostinil following administration of a single duodenal dose of treprostinil and various prodrugs of the present invention. […] The plasma concentrations of Treprostinil following […] of each prodrug were evaluated in male Sprague-Dawley rats. […] Plasma samples were analyzed using the methods described above. In brief, Treprostinil was extracted from the plasma via solid phase extraction then analyzed by LC/MS/MS. […]
The response must be a number in min with no trailing unit.

INSERT INTO assay_data (molecule, reported) VALUES
  ('CCCCCC(O)CCC1C(OC(=O)C(C)N)CC2Cc3c(cccc3OCC(=O)O)CC21 [treprostinil monoalanine (ring), 2-L-Alanine Ester of Treprostinil]', 60),
  ('CCCCCC(O)CCC1C(OP(=O)(O)O)CC2Cc3c(cccc3OCC(=O)O)CC21 (stereo not shown) [treprostinil monophosphate (ring), 2-Monophosphate Ester of Treprostinil]', 5),
  ('CCCCC[C@@H](CC[C@@H]1[C@H]2Cc3cccc(OCC(=O)O)c3C[C@H]2C[C@H]1O)OC(=O)[C@H](C)N', 5);

Req: Please look up its Tmax (of Treprostinil): CCCCCC(O)CCC1C(OC(=O)C(N)C(C)C)CC2Cc3c(cccc3OCC(=O)O)CC21 [treprostinil monovaline (ring), 2-L-Valine Ester of Treprostinil]
Resp: 120

====

Experiment: in vivo
Settings: male, Sprague-Dawley, rat, po, 1 mg/kg, Tmax
MEASURED PARAMETER: Tmax (min)
The response must be a number in min with no trailing unit.

Req: Please look up its Tmax: CCCCC[C@H](O)CC[C@@H]1[C@H]2Cc3cccc(OCC(=O)O)c3C[C@H]2C[C@H]1O [Treprostinil, treprostinil]
Resp: 5

====

Test: in vivo
Settings: male, Sprague-Dawley, rat, iv, 1 mg/kg, Average (n = 3) plasma concentrations
MEASURED PARAMETER: concentration at 240 min (ng/mL)
The response must be a number in ng/mL with no trailing unit.

Req: Please look up its concentration at 240 min: CCCCC[C@H](O)CC[C@@H]1[C@H]2Cc3cccc(OCC(=O)O)c3C[C@H]2C[C@H]1O
Resp: 1.09

====

Experiment: in vivo
Conditions: male, Sprague-Dawley, rat, 1 mg/kg, Average plasma concentrations
MEASURED PARAMETER: concentration at 2 min
Don't forget the unit after the number, please.

Req: Please look up its concentration at 2 min: CCCCC[C@H](O)CC[C@@H]1[C@H]2Cc3cccc(OCC(=O)O)c3C[C@H]2C[C@H]1O
Resp: 302 ng/mL

====

Assay: in vivo
Conditions: male, Sprague-Dawley, rat, iv, 1 mg/kg, Tmax
MEASURED PARAMETER: Tmax (h)
The response must be a number in h with no trailing unit.

Req: Please look up its Tmax: CCCCC[C@H](O)CC[C@@H]1[C@H]2Cc3cccc(OCC(=O)O)c3C[C@H]2C[C@H]1O [Treprostinil, treprostinil]
Resp: 0
